All values here come from the supplement of paper PMC11061612.

System: NCCIT (Other Solid Carcinomas);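 note: after 72 h of two-drug dosing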
PROTOCOL_SUMMARY: Bliss excess, mean over the matrix (fraction); higher = more synergy
PARAMETER: Bliss excess

- COMPOUND: "COc1cccc(OCCCN)c1-c1cc(Nc2cnc(C#N)cn2)n[nH]1 [Prexasertib] + Cc1cc2ncnn2cc1Nc1ncc2c(n1)n(C1CCOCC1)c(=O)n2C [AZD7648] (first compound max 1 µM, 7x7, partner max 10 µM)"
  ASSAYED_SYSTEM: "NCCIT (Other Solid Carcinomas)"
  Bliss excess: -0.0331

Please turn your attention to the following entry.
### Prompt Any idea what its Bliss excess is? The compound is C[C@@H](Oc1cc(-c2cnn(C3CCNCC3)c2)cnc1N)c1c(Cl)ccc(F)c1Cl [Crizotinib] + CC1=C(C(=CC=C1)Cl)NC(=O)C2=CN=C(S2)NC3=CC(=NC(=N3)C)N4CCN(CC4)CCO [Dasatinib] (first compound max 10 µM, 7x7, partner max 2 µM)
### Response -0.0416
